# system_tested: furin, P09958;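 further: purified furin at 1:10 enzyme:substrate in 50 mM HEPES pH 7.5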
# Sequence (P09958 whole entry): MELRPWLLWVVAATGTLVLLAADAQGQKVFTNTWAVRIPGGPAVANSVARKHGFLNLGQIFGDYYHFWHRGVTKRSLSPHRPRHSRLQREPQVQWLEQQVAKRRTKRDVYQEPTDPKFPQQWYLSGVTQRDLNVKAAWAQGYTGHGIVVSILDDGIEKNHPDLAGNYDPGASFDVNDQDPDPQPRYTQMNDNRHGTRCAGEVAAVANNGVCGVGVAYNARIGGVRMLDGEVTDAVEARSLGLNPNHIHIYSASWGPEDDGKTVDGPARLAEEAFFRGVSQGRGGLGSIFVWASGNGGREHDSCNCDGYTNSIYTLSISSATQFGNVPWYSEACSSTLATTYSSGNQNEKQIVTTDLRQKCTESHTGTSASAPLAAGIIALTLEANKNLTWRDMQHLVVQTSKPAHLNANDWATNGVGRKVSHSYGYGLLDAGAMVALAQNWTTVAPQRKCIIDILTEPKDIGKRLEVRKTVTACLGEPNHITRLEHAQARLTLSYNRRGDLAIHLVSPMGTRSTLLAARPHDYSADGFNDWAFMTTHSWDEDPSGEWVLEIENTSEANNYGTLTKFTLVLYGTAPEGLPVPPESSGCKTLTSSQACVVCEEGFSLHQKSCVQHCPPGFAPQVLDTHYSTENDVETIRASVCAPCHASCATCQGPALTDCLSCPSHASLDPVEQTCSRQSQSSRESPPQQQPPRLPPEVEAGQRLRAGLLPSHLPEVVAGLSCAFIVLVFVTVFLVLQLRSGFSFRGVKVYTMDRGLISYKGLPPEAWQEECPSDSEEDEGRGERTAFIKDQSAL
# assay_explanation: furin cleavage Z-score vs untreated control; higher = more cleavage, active = 3.5 or more, inactive = 1 or less, 8 variable residues between constant flanks
# condition: 30 min
Some of the results follow. The true hit rate is not given.
Respond with a class label; see active, inactive

Field: example entries. Status: answers known.
1) CALTPPHSAKAGNASASA [HC1416]    inactive
2) CAVLVRKRRAAGNASASA [FS-1178]    active

Task: Write down the call the test reported for this sequence. Item: CALTTTQWQVAGNASASA [HC494]
Output: inactive

Task: Write down the call the test reported for this sequence. Item: CARVWRDSFLAGNASASA [FS-2407]
Output: inactive

Task: Write down the call the test reported for this sequence. Item: CAEMSRTRRYAGNASASA [FS-1319]
Output: active

Task: Write down the call the test reported for this sequence. Item: CAFTPCSGSWAGNASASA [HC1827]
Output: inactive

Task: Write down the call the test reported for this sequence. Item: CARDWAHNGLAGNASASA [HC639]
Output: inactive

Task: Write down the call the test reported for this sequence. Item: CAFRARFRRLAGNASASA [FS-526]
Output: active

Task: Write down the call the test reported for this sequence. Item: CARERREVVRAGNASASA [FU3]
Output: active

Task: Write down the call the test reported for this sequence. Item: CAMEECSIHLAGNASASA [HC1724]
Output: inactive

Task: Write down the call the test reported for this sequence. Item: CALRGRSRRLAGNASASA [FS-135]
Output: active

Task: Write down the call the test reported for this sequence. Item: CAFLKRSGRDAGNASASA [FS-1324]
Output: active

Task: Write down the call the test reported for this sequence. Item: CASAPPGDPPAGNASASA [HC1544]
Output: inactive

Task: Write down the call the test reported for this sequence. Item: CARVARSGRDAGNASASA [FS-3115]
Output: active

Task: Write down the call the test reported for this sequence. Item: CARKKRLISYAGNASASA [FS-2965]
Output: active

Task: Write down the call the test reported for this sequence. Item: CAVVCCSESYAGNASASA [HC2052]
Output: inactive

Task: Write down the call the test reported for this sequence. Item: CAWPTRRRRLAGNASASA [FS-109]
Output: active

Task: Write down the call the test reported for this sequence. Item: CARERRDAGRAGNASASA [FS-2137]
Output: active

Task: Write down the call the test reported for this sequence. Item: CARERRDSGVAGNASASA [FS-2486]
Output: inactive

Task: Write down the call the test reported for this sequence. Item: CARYKRKSDEAGNASASA [FS-3177]
Output: active

Task: Write down the call the test reported for this sequence. Item: CARNVRFSDEAGNASASA [FS-2223]
Output: inactive

Task: Write down the call the test reported for this sequence. Item: CAEVPCHVPSAGNASASA [HC2370]
Output: inactive

Task: Write down the call the test reported for this sequence. Item: CARKKRMAKYAGNASASA [FS-2966]
Output: active

Task: Write down the call the test reported for this sequence. Item: CAQDVRCRRLAGNASASA [FS-478]
Output: inactive

Task: Write down the call the test reported for this sequence. Item: CATTVCSGSWAGNASASA [HC1870]
Output: inactive
